// provenance: patent US20230015823A1

# assay details: Phase 1 study of a single oral dose of voxelotor in subjects with hepatic impairment: whole blood and plasma PK
# Assay type: in vivo, human
# setup conditions: human, whole blood, oral, 1500 mg, whole blood; normal hepatic function (Reference); 1500 mg; read-out: Cmax, Geometric LS Mean
outcome measure: Cmax (µg/mL)
Give the value, in units of µg/mL, as a plain number.

Req: State the recorded Cmax for this entry: `CC(C)n1nccc1-c1ncccc1COc1cccc(O)c1C=O`
Resp: 61.4

====

# assay details: Phase 1 study of a single oral dose of voxelotor in subjects with hepatic impairment: whole blood and plasma PK
# Assay type: in vivo, human
# setup conditions: human, plasma, oral, 600 mg, plasma; severe hepatic impairment (Test); 600 mg, adjusted for dose to 1500 mg; read-out: Cmax, Geometric LS Mean
outcome measure: Cmax (ng/mL)
Give the value, in units of ng/mL, as a plain number.

Req: State the recorded Cmax for this entry: CC(C)n1nccc1-c1ncccc1COc1cccc(O)c1C=O [voxelotor]
Resp: 2900

====

# assay details: Phase 1 study of a single oral dose of voxelotor in subjects with hepatic impairment: whole blood and plasma PK
# Assay type: in vivo, human
# setup conditions: human, plasma, po, 600 mg, plasma; severe hepatic impairment; 600 mg single oral dose, adjusted for dose to 1500 mg; read-out: AUCinf, GM (converted)
outcome measure: AUC(0-inf) (µg·h/mL)
Give the value, in units of µg·h/mL, as a plain number.

Req: State the recorded AUC(0-inf) for this entry: `CC(C)n1nccc1-c1ncccc1COc1cccc(O)c1C=O`
Resp: 393

====

# assay details: Phase 1 study of a single oral dose of voxelotor in subjects with hepatic impairment: whole blood and plasma PK
# Assay type: in vivo, human
# setup conditions: human, whole blood, po, 1500 mg, whole blood; mild hepatic impairment; 1500 mg single oral dose; read-out: t1/2, mean (converted)
# Description: A Phase 1, open-label study was performed to characterize pharmacokinetics (PK) and safety of a single oral dose of voxelotor in subjects with hepatic impairment. […] Adverse events and concomitant medication use were monitored throughout the study. […] Whole blood and plasma concentrations of voxelotor were determined using validated assays. […] The following PK parameters were determined. […] The lower limit of assay quantitation for voxelotor was 10.0 ng/mL for whole blood and 5.00 ng/mL in plasma.
outcome measure: half-life (days)
Give the value, in units of days, as a plain number.

Req: State the recorded half-life for this entry: `CC(C)n1nccc1-c1ncccc1COc1cccc(O)c1C=O`
Resp: 2.5

====

# assay details: Clinical pharmacokinetics of voxelotor in plasma, whole blood and RBCs
# Assay type: in vivo, human
# setup conditions: human, plasma, oral, 1500 mg; patients with SCD; read-out: terminal elimination half-life, geometric mean (converted)
# Description: Voxelotor is absorbed into plasma and is then distributed predominantly into RBCs due to its preferential binding to Hb. The major route of elimination of voxelotor is by metabolism with subsequent excretion of metabolites into urine and feces. The PK are linear and voxelotor exposures increased proportionally with either single or multiple doses (Table 3) in whole blood, plasma, and RBCs. […]
outcome measure: half-life (h)
Give the value, in units of h, as a plain number.

Req: State the recorded half-life for this entry: `CC(C)n1nccc1-c1ncccc1COc1cccc(O)c1C=O`
Resp: 35.5

====

# assay details: Phase 1 study of a single oral dose of voxelotor in subjects with hepatic impairment: whole blood and plasma PK
# Format: in vivo, human
# setup conditions: human, plasma, po, 1500 mg, plasma; normal hepatic function; 1500 mg single oral dose; read-out: AUCinf, GM (converted)
outcome measure: AUC(0-inf) (µg·h/mL)
Give the value, in units of µg·h/mL, as a plain number.

Req: State the recorded AUC(0-inf) for this entry: `CC(C)n1nccc1-c1ncccc1COc1cccc(O)c1C=O`
Resp: 200

====

# assay details: Phase 1 study of a single oral dose of voxelotor in subjects with hepatic impairment: whole blood and plasma PK
# Type: in vivo, human
# setup conditions: human, plasma, oral, 1500 mg, plasma; mild hepatic impairment (Test); 1500 mg; read-out: AUCt, Geometric LS Mean
outcome measure: AUC(0-t) (µg·h/mL)
Give the value, in units of µg·h/mL, as a plain number.

Req: State the recorded AUC(0-t) for this entry: CC(C)n1nccc1-c1ncccc1COc1cccc(O)c1C=O [voxelotor]
Resp: 221

====

# assay details: Phase 1 study of a single oral dose of voxelotor in subjects with hepatic impairment: whole blood and plasma PK
# Assay type: in vivo, human
# setup conditions: human, plasma, po, 1500 mg, plasma; normal hepatic function; 1500 mg single oral dose; read-out: AUC0-96, GM (converted)
outcome measure: AUC(0-t) (µg·h/mL)
Give the value, in units of µg·h/mL, as a plain number.

Req: State the recorded AUC(0-t) for this entry: `CC(C)n1nccc1-c1ncccc1COc1cccc(O)c1C=O`
Resp: 120

====

# assay details: Phase 1 study of a single oral dose of voxelotor in subjects with hepatic impairment: whole blood and plasma PK
# Assay type: in vivo, human
# setup conditions: human, whole blood, po, 1500 mg, whole blood; normal hepatic function; 1500 mg single oral dose; read-out: AUCinf, GM (converted)
outcome measure: AUC(0-inf) (µg·h/mL)
Give the value, in units of µg·h/mL, as a plain number.

Req: State the recorded AUC(0-inf) for this entry: CC(C)n1nccc1-c1ncccc1COc1cccc(O)c1C=O [voxelotor]
Resp: 6980

====

# assay details: Phase 1 study of a single oral dose of voxelotor in subjects with hepatic impairment: whole blood and plasma PK
# Assay type: in vivo, human
# setup conditions: human, plasma, po, 1500 mg, plasma; moderate hepatic impairment; 1500 mg single oral dose; read-out: Vz/F, GM (converted)
outcome measure: Vd/F (L)
Give the value, in units of L, as a plain number.

Req: State the recorded Vd/F for this entry: `CC(C)n1nccc1-c1ncccc1COc1cccc(O)c1C=O`
Resp: 789

====

# assay details: Phase 1 study of a single oral dose of voxelotor in subjects with hepatic impairment: whole blood and plasma PK
# Format: in vivo, human
# setup conditions: human, plasma, po, 1500 mg, plasma; mild hepatic impairment; 1500 mg single oral dose; read-out: tmax, median (converted)
# Method: A Phase 1, open-label study was performed to characterize pharmacokinetics (PK) and safety of a single oral dose of voxelotor in subjects with hepatic impairment. […] Adverse events and concomitant medication use were monitored throughout the study. […] Whole blood and plasma concentrations of voxelotor were determined using validated assays. […] The following PK parameters were determined. […] The lower limit of assay quantitation for voxelotor was 10.0 ng/mL for whole blood and 5.00 ng/mL in plasma.
outcome measure: Tmax (h)
Give the value, in units of h, as a plain number.

Req: State the recorded Tmax for this entry: `CC(C)n1nccc1-c1ncccc1COc1cccc(O)c1C=O`
Resp: 4

====

# assay details: Phase 1 study of a single oral dose of voxelotor in subjects with hepatic impairment: whole blood and plasma PK
# Format: in vivo, human
# setup conditions: human, whole blood, po, 1500 mg, whole blood; normal hepatic function; 1500 mg single oral dose; read-out: AUC0-96, GM (converted)
outcome measure: AUC(0-t) (µg·h/mL)
Give the value, in units of µg·h/mL, as a plain number.

Req: State the recorded AUC(0-t) for this entry: `CC(C)n1nccc1-c1ncccc1COc1cccc(O)c1C=O`
Resp: 4270

====

# assay details: Phase 1 study of a single oral dose of voxelotor in subjects with hepatic impairment: whole blood and plasma PK
# Assay type: in vivo, human
# setup conditions: human, whole blood, oral, 600 mg, whole blood; severe hepatic impairment (Test); 600 mg, adjusted for dose to 1500 mg; read-out: AUCinf, Geometric LS Mean
outcome measure: AUC(0-inf) (µg·h/mL)
Give the value, in units of µg·h/mL, as a plain number.

Req: State the recorded AUC(0-inf) for this entry: `CC(C)n1nccc1-c1ncccc1COc1cccc(O)c1C=O`
Resp: 13600

====

# assay details: Drug substance properties (solubility, hygroscopicity)
# Assay type: physicochemical
# setup conditions: water; crystalline Form II free base
outcome measure: solubility

Req: State the recorded solubility for this entry: `CC(C)n1nccc1-c1ncccc1COc1cccc(O)c1C=O`
Resp: ~30 µg/mL

====

# assay details: Clinical pharmacokinetics of voxelotor in plasma, whole blood and RBCs
# Type: in vivo, human
# setup conditions: human, oral, 1500 mg; plasma; Voxelotor 1,500 mg; read-out: AUC0-24h, Geometric Mean (% CV)
outcome measure: AUC(0-t) (µg·h/mL)
Give the value, in units of µg·h/mL, as a plain number.

Req: State the recorded AUC(0-t) for this entry: `CC(C)n1nccc1-c1ncccc1COc1cccc(O)c1C=O`
Resp: 246

====

# assay details: Phase 1 study of a single oral dose of voxelotor in subjects with hepatic impairment: whole blood and plasma PK
# Type: in vivo, human
# setup conditions: human, whole blood, oral, 1500 mg, whole blood; normal hepatic function (Reference); 1500 mg; read-out: AUCinf, Geometric LS Mean
outcome measure: AUC(0-inf) (µg·h/mL)
Give the value, in units of µg·h/mL, as a plain number.

Req: State the recorded AUC(0-inf) for this entry: CC(C)n1nccc1-c1ncccc1COc1cccc(O)c1C=O [voxelotor]
Resp: 7150
